Biological target: T1, RSV F glycoprotein (NUF4) (respiratory syncytial virus)
T1 chain 1: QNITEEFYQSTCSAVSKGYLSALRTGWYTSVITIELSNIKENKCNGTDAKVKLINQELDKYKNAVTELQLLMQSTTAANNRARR
T1 chain 2: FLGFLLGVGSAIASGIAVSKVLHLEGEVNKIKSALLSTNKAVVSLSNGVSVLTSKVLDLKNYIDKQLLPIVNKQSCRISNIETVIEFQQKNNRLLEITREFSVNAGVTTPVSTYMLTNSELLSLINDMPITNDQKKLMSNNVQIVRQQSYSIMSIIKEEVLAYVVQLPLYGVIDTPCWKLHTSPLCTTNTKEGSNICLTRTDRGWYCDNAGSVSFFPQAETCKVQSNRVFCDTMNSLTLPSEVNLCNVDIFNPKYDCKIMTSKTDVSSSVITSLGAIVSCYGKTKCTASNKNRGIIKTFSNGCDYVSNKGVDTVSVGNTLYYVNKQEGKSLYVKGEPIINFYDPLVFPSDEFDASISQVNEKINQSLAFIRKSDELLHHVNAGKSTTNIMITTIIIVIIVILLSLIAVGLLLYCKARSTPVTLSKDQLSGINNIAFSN
Assay: SPR (BIAcore), mAb vs NUF4 (1:1)

{"binder": "A17d4(1) IgG (antibody, V domains shown) VH: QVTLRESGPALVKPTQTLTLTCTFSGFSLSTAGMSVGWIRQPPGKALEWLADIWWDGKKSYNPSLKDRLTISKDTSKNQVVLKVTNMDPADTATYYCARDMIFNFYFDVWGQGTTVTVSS VL: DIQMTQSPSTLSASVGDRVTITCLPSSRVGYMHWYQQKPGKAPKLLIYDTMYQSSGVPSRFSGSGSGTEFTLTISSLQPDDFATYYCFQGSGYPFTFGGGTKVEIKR", "fold in parentheses (palivizumab = 1), fold": 12}
{"binder": "A12a6 IgG (antibody, V domains shown) VH: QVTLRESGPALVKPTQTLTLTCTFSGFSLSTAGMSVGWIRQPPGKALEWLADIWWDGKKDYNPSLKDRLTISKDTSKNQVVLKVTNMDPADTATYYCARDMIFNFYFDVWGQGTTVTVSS VL: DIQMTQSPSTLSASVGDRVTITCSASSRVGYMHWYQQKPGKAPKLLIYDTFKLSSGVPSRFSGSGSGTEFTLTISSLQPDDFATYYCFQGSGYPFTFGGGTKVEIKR", "fold in parentheses (palivizumab = 1), fold": 12}
{"binder": "A1e9 IgG (antibody, V domains shown, also called Ale9) VH: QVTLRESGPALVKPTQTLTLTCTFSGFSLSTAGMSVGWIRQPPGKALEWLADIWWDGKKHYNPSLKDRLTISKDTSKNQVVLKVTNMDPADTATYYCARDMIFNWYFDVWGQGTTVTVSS VL: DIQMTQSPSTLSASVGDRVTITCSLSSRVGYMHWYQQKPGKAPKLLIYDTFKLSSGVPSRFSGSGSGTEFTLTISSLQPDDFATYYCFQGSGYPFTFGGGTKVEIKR", "fold in parentheses (palivizumab = 1), fold": 13}
